Listed next: entries and their corresponding CC50.
- EXPERIMENT_SUMMARY: Cytotoxicity against cat CRFK cells assessed as decrease in cell viability after 3 days by CellTiter 96 Aqueous One solution assay
- Type: cell-based, Felis catus
- STATED_CONDITIONS: 72 h
Return type: number; implicit unit µM.

Summary for this compound, "CCOC(=O)[C@H](C)NP(=O)(CO[C@H](C)Cn1cnc2c(N)nc(N)nc21)N[C@@H](C)C(=O)OCC" : CC50 is 215

Query compound follows.
Entry under test: "CCCCCCCCCCCCCCCCOCCCOP(=O)([O-])CO[C@H](C)Cn1cnc2c(N)nc(N)nc21.[Na+]" . Its CC50 was 96

The measured values listed here are drawn from ChEMBL document CHEMBL2331282.
